- system: T1, FX activation peptide 12-mer LDPTENPFDLLD (human)
- T1 peptide: LDPTENPFDLLD-biotin
- procedure-summary: peptide ELISA
Ends that are not written are not given here.
measure: ELISA signal relative to background
// no unit, no text: just the number

binder	ELISA signal relative to background
Nb 701D07 (VHH, monovalent Nanobody; not shown: C-terminal FLAG3 and HIS6 tag) VHH: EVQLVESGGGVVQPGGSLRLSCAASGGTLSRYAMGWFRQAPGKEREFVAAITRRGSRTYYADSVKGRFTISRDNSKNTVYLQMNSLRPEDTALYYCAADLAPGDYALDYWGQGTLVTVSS	0.8
Nb 701B09 (VHH, monovalent Nanobody; also called Nb 701609; not shown: C-terminal FLAG3 and HIS6 tag) VHH: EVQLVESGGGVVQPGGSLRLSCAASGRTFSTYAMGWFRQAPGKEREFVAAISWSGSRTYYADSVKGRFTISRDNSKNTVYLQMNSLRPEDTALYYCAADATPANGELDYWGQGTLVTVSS	0.84
Nb 702C12 (VHH, monovalent Nanobody; not shown: C-terminal FLAG3 and HIS6 tag) VHH: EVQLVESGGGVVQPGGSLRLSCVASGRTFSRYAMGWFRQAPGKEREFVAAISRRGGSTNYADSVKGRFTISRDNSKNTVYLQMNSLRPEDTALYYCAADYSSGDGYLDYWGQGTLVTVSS	1.11

Lab note: next binder to report on.
[ask] Request the reported ELISA signal relative to background associated with Nb 730C03 (VHH, monovalent Nanobody; also called Nb 730003; not shown: C-terminal FLAG3 and HIS6 tag) VHH: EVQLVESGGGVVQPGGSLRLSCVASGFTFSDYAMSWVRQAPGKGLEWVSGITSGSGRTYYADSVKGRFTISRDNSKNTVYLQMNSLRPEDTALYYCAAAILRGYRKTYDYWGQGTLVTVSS
[reply] 1.3
